# System: SK-MEL-28 melanoma
# assay protocol: NCI tumour cell line growth inhibition, 48 h; in the data active means GI50 below about 0.43 µM; inactive means the rest
Returns: one label drawn from y = active, n = inactive

Ask: Assay outcome for COC(=O)c1ccc2c(c1)/C(=C\c1cc(Br)c(O)c(Br)c1)C(=O)N2 : what was it?
Reply: n

Ask: Please share the test call associated with O=C(Nc1ccc(Cl)c(C(F)(F)F)c1)c1ccc(NC2=C(Cl)C(=O)N(Cc3ccccc3)C2=O)cc1 .
Reply: n

Ask: Please indicate how the test categorized COc1cc(/C=C/C(=O)c2cccc(-n3cc(-c4ccc(Cl)cc4)[nH]c3=O)c2)ccc1O .
Reply: n

Ask: What classification did C[C@H](Nc1cc(Cl)nc2c1cnn2[C@@H]1O[C@H](COP(=O)(O)CP(=O)(O)O)[C@@H](O)[C@H]1O)c1ccccc1F end up with in this test?
Reply: n

Ask: Lab log entry: O=[N+]([O-])c1ccc(CI)cc1 — outcome as called in the assay?
Reply: n

Ask: Outcome? COC(=O)c1cc2c(s1)-c1nccc3c1c(nc1ccccc13)C2=O
Reply: n

Ask: Look up the recorded call for CN(C)c1ccc(N=Nc2ccccn2)c(O)c1 in this test.
Reply: n

Ask: Recorded test outcome, item Cc1ccc2c(C3C(C#N)=C(N)Oc4cc5ccccc5cc43)cc(=O)oc2c1 (stereo unspecified)
Reply: n

Ask: What is the recorded call for this compound in the test? CN(C)C(=S)Sc1ccc([N+](=O)[O-])cc1[N+](=O)[O-]
Reply: n

Ask: Test call for this compound, please: CSc1ccccc1C#C/C=C\C#Cc1ccccc1N
Reply: n

Ask: Give the logged outcome of this assay for the following compound: CS(=O)(=O)Nc1cc(-c2ccc3ncnc(Nc4c(Cl)ccc5c4OCO5)c3c2)cnc1Cl
Reply: y

Ask: What was the test verdict on O=C1c2cccc3cccc(c23)C(=O)N1CCCCCN1CCN(CCCCCOc2ccc(-c3nc4ccc(N5CCOCC5)cc4[nH]3)cc2)CC1 ?
Reply: n

Ask: Which result was noted for this compound in the test: CC(C)=CCc1cc(O)cc2c1OC(C=C(C)C)C1=C2C(=O)C2=C(C1=O)S(=O)(=O)CCN2 (stereo unspecified)
Reply: n

Ask: Kindly provide the recorded test outcome for the following compound: CC(C(=O)O)c1cccc(Oc2ccccc2)c1 (stereo unspecified)
Reply: n

Ask: Status in this test for COc1cc(/C=C\c2cc(OC)c(OC)c(OC)c2)cc(N/C=C\C(=O)c2cc(OC)c(OC)c(OC)c2)c1OC ?
Reply: n

Ask: Record lookup: outcome of this test for COc1ccc(-c2nnc(N3CCN(C(=O)CN4CCN(c5ccccc5)CC4)CC3)nc2-c2ccc(OC)cc2)cc1 ?
Reply: n

====

# System: RPMI-8226 leukemia
# assay protocol: NCI tumour cell line growth inhibition, 48 h
measurement kind: TGI (µM)
Report only the number, with the unit µM understood.

Ask: Lookup: TGI / RPMI-8226 leukemia / O=C1c2cccc3cccc(c23)C(=O)N1CCCCCN1CCN(CCCCCOc2ccc(-c3nc4ccc(N5CCOCC5)cc4[nH]3)cc2)CC1
Reply: 3.72

Ask: Field: TGI (RPMI-8226 leukemia). Entry: COC(=O)[C@@]1(C)/C(=N/NS(=O)(=O)c2ccc(C)cc2)CCC[C@@H]1C
Reply: 72.6

====

# Tested on: SK-MEL-28 melanoma
# assay protocol: NCI tumour cell line growth inhibition, 48 h
measurement kind: TGI

Ask: What value of TGI has been recorded for this entry: Cn1c(Nc2ccc(C(F)(F)F)cc2)nc2cc(Oc3ccnc(-c4ncc(C(F)(F)F)[nH]4)c3)ccc21
Reply: 4.79 µM

Ask: Look at this compound and give its reported TGI. O=[P@@]1(c2ccccc2)O[C@H](COCc2ccccc2)[C@@H](OCc2ccccc2)[C@H](OCc2ccccc2)[C@H]1NCc1ccccc1
Reply: > 100 µM

Ask: If you can, please state the reported TGI value of COC1(OC)CCCc2c1no[n+]2[O-] .
Reply: > 100 µM

Ask: I'd like to know its TGI. The compound in question is COC12OCCN(C)C1=CC(=O)C1=NNC(C)C12 (stereo unspecified)
Reply: > 100 µM

Ask: Value lookup for TGI; key = CCOC1c2cc(C(C)C)c(O)c(O)c2[C@@]23CCCC(C)(C)C2C1OC3=O (stereo partly specified)
Reply: > 100 µM

Ask: If you can, please state the reported TGI value of C[Si](C)(C)/C(I)=C/CO .
Reply: 77.5 µM

Ask: Which value of TGI has been reported for CN(C)c1ccc(N=Nc2ccccn2)c(O)c1 in the records?
Reply: > 100 µM

Ask: If you can, please state the reported TGI value of Cc1cc(C(F)(F)F)cc(-n2nc(NS(=O)(=O)c3cc(C)c(Cl)cc3S)nc2N)n1 .
Reply: > 100 µM

Ask: Need TGI, item CS/C(=C(\S)c1ccccc1)c1ccccc1
Reply: > 100 µM

Ask: Which TGI is reported for this compound? O=C(NNc1ccccc1)C(=O)NNc1ccccc1
Reply: > 100 µM

Ask: Name the recorded TGI for CC1(Br)Cc2ccccc2C1=O (stereo unspecified) .
Reply: 7.68 µM

====

Answer each item with its documented GI50.
# Tested on: COLO 205 colon
# assay protocol: NCI tumour cell line growth inhibition, 48 h

Ask: State the recorded GI50 for this entry: O=[N+]([O-])c1cccc2ccc(N/N=C/c3ccccc3O)nc12
Reply: 1.91 µM

Ask: Fill blank: measured GI50 of the compound O=C1c2cc3c(cc2-c2c1c1cc(Cl)c(Cl)cc1c(=O)n2C[C@H](O)CO)OCO3 is ____.
Reply: < 0.01 µM

Ask: GI50 for COc1cc(C2CC(c3cccc(Nc4ccncc4)c3)=NN2c2ccc(Cl)cc2)cc(OC)c1OC (configuration not stated) ?
Reply: 2.12 µM

Ask: # GI50 lookup, item COc1cc(/C=C/C(=O)c2cccc(-n3cc(-c4ccc(Cl)cc4)[nH]c3=O)c2)ccc1O
Reply: 4.88 µM

Ask: Using the record for CN1CC[C@@H](c2c(O)cc(O)c3c(=O)cc(-c4ccc(C(F)(F)F)cc4Cl)oc23)[C@@H]1CO , report its GI50.
Reply: 15.1 µM

Ask: Request the reported GI50 associated with Cn1c(=O)c(Oc2ccc(F)cc2)cc2cnc(NC3CCOCC3)nc21
Reply: > 25 µM

Ask: Item under review: Cc1nc2cc(Nc3nc(Nc4ccc(F)cc4)nc(-c4cccs4)n3)ccc2n1Cc1ccccc1 . Reported GI50?
Reply: 3.7 µM

Ask: What does the data say about its GI50? Entry: CCc1ccc(/C=C/c2ccc(O)c3ncccc23)[n+](C)c1
Reply: 8.07 µM

Ask: Find the recorded GI50 belonging to COC(=O)C1=CN(CC2=CC(=O)C(C)=CC2=O)C=C(C(=O)OC)C1c1cccc(OC)c1 and report it.
Reply: 18.4 µM

Ask: Which GI50 is listed for Cc1cc(N(CCCNc2ccnc3cc(Cl)ccc23)Cc2ccc3c(c2)OCO3)nc(N2CCOCC2)n1 ?
Reply: 0.269 µM

Ask: What value of GI50 has been reported for the following compound? CSc1nc(NC2OC(COC(C)=O)C(OC(C)=O)C(OC(C)=O)C2OC(C)=O)c(N=CC=Nc2c(NC3OC(COC(C)=O)C(OC(C)=O)C(OC(C)=O)C3OC(C)=O)nc(SC)n(C)c2=O)c(=O)n1C (configuration not stated)
Reply: > 50 µM

Ask: Which GI50 value belongs to O=C(Nc1cc(C(F)(F)F)ccc1Cl)c1cccc(NC2=C(Cl)C(=O)N(Cc3ccccc3)C2=O)c1 ?
Reply: 41.5 µM

====

# Test system: HS 578T breast
# assay protocol: NCI tumour cell line growth inhibition, 48 h
Where a SMILES comes first, the peptide text is derived from it. The star is where a group is joined. Cbz = O=C(OCc1ccccc1)*
Assignment: determine reported TGI for the given molecules.

Ask: TGI for COc1ccc(N=NC(=O)NC(CC(C)C)C(=O)NC(C)C(=O)O)cc1 (stereo not given) ?
Reply: > 100 µM

Ask: # lookup: TGI of CC(C(=O)O)c1cccc(Oc2ccccc2)c1 (stereo not given)
Reply: > 100 µM

Ask: May I ask what TGI has been recorded for NCCCn1c2c(c3ccc([N+](=O)[O-])cc3c1=O)C(=O)c1ccccc1-2 ?
Reply: 2.29 µM

Ask: Which TGI is listed for [N-]=[N+]=NCc1nc(N)c2c3c(sc2n1)CCCC3 ?
Reply: 14.9 µM

Ask: Fill in: TGI of CCOC(=O)C(CCN1CCC2(CC1)C(=O)N(C)CN2c1ccccc1)C(=O)OCC is ___
Reply: > 100 µM

Ask: GET /values?readout=TGI&item= CC1C=CN(N(C)C)C2=C1C(=O)c1cnccc1C2=O (stereo not given)
Reply: 3.82 µM

Ask: Fill in: TGI of COC(=O)c1ccc2c(c1)/C(=C\c1cc(Br)c(O)c(Br)c1)C(=O)N2 is ___
Reply: > 22.6 µM

Ask: So what's the measured TGI for this one? Cn1c2c(c3ccccc31)CCN1C(=O)CN(C(=O)C3CCCCC3)CC21 (stereo not given)
Reply: > 100 µM

Ask: So what's the measured TGI for this one? CCOC(=O)/C=C(/C(=O)OCC)n1cnc2c(=O)[nH]c(NC(C)=O)nc21
Reply: > 100 µM

Ask: Item CC(NC(=O)C(NC(=O)OCc1ccccc1)C(C)C)C(=O)NCC(=O)O (stereo not drawn) (Cbz-Val-Ala-Gly-OH; configuration not given here) has what recorded TGI?
Reply: > 100 µM

Ask: If you can, please state the reported TGI value of Cc1ccc(Nc2oc(-c3ccccc3)nc2[P+](c2ccccc2)(c2ccccc2)c2ccccc2)cc1 .
Reply: 3.99 µM

Ask: Param item = C[C@H](Nc1cc(Cl)nc2c1cnn2[C@@H]1O[C@H](COP(=O)(O)CP(=O)(O)O)[C@@H](O)[C@H]1O)c1ccccc1F ; retrieve measured TGI.
Reply: > 100 µM

Ask: Give the measured TGI of Cc1cc2c(cc1C(=O)c1ccc(N)cc1)OCO2 .
Reply: > 100 µM

Ask: Could you tell me which TGI is on file for Oc1ccc(Nc2c3ccccc3nc3occ(Cl)c23)cc1 ?
Reply: > 100 µM

Ask: Query (molecule): Nc1c(C(=O)c2ccccc2)cnn1-c1ccc(F)cc1 ; field requested: TGI
Reply: > 25 µM

Ask: Any idea what its TGI is? The molecule is O=[N+]([O-])c1cccc2ccc(N/N=C/c3ccccc3O)nc12
Reply: > 100 µM

Ask: Look up TGI: CCc1ccc(/C=C/c2ccc(O)c3ncccc23)[n+](C)c1
Reply: > 100 µM

Ask: Given the entry O=C1c2cc3c(cc2-c2c1c1cc(Cl)c(Cl)cc1c(=O)n2C[C@H](O)CO)OCO3 , report its measured TGI.
Reply: 32.9 µM

Ask: Return reported TGI; argument: CC1CCN(C(=O)OCc2nc3nc(Cl)nc(N4CCOCC4)c3[nH]2)CC1
Reply: 4.85 µM

Ask: I would be grateful if you could share the reported TGI for CC(Oc1ccc(Cl)cc1Cl)C(=O)NN1C(=O)CSC1c1ccccc1 (stereo not given) .
Reply: > 100 µM

Ask: TGI lookup needed for CC1(C)OC2C(O)C(CO)OC2(C(F)F)O1 (stereo not given) , thanks.
Reply: > 100 µM

Ask: Would you kindly share the measured TGI for CCc1nc(N)nc(N)c1-c1ccc([N+](C)(C)C)cc1 ?
Reply: > 100 µM

Ask: Could you share which TGI value was measured for O=C(N(O)c1ccccc1Cl)C(O)(c1ccccc1)c1ccccc1 ?
Reply: > 100 µM

Ask: State the recorded TGI for this entry: COCOC1C=CCCCC2=CC(C)=C(CC1)O2 (stereo not given)
Reply: > 100 µM

Ask: Which TGI value is on record for COc1ccc2c(C(=O)c3cn(CCN4CCOCC4)c4ccccc34)cccc2c1 ?
Reply: > 100 µM

Ask: Recorded TGI for Clc1nc(Cl)nc(Nc2cccc3ccccc23)n1 , please?
Reply: > 100 µM

Ask: What does the data say about its TGI? Entry: O=C(Cn1c(-c2ccccc2)cc2ccccc21)N1CCCC1
Reply: > 100 µM

Ask: Report TGI for Cc1ccc2c(C3C(C#N)=C(N)Oc4cc5ccccc5cc43)cc(=O)oc2c1 (stereo not given) please.
Reply: > 100 µM

Ask: Which measured TGI value corresponds to O=C(NNC(=O)c1ccccc1O)c1cccc(Br)c1 ?
Reply: > 100 µM

Ask: // returns reported TGI for input O=C(CNS(=O)(=O)Cc1ccccc1)NNc1ccccc1
Reply: > 100 µM

Ask: I am curious: what TGI value has been reported for CCC(=O)O[C@H]1CC[C@H]2[C@@H]3CCC4=C/C(=N/OC(=O)c5cccc6cc7ccccc7nc56)CC[C@]4(C)[C@H]3CC[C@]12C ?
Reply: > 100 µM

Ask: Report TGI for COc1ccc(C2=C3SC=c4ccccc4=C3ON=C2c2ccccc2)cc1 please.
Reply: > 100 µM

Ask: So what does the record say about TGI for CN(C)C(=S)Sc1ccc([N+](=O)[O-])cc1[N+](=O)[O-] ?
Reply: 56.3 µM

Ask: Return reported TGI; argument: CC1(C)N=C(N)N=C(N)N1c1ccc(CCCCc2ccc(Cl)c(S(=O)(=O)F)c2)c(Cl)c1
Reply: 34.2 µM

Ask: Return reported TGI; argument: COC1(OC)CCCc2c1no[n+]2[O-]
Reply: > 100 µM

Ask: Quick one: TGI of CC(=O)c1c(O)ccc2c1c1c(n2C)C(=O)c2ccccc2C1=O ?
Reply: > 100 µM

Ask: Name the reported TGI value associated with the molecule Nc1ccccc1N=Cc1cc2cc([N+](=O)[O-])ccc2s1
Reply: 41.8 µM

Ask: Fill in: TGI of COc1ccc(-c2cc3ccccc3oc2=O)cc1OC is ___
Reply: > 100 µM

Ask: For CN(C)CCC(=O)C(=Cc1ccc(O)cc1)C(=O)CCN(C)C , what is its reported TGI?
Reply: > 100 µM

Ask: I'd like to know its TGI. The molecule in question is CN(C)c1ncnc2c1ncn2CCn1cnc2c(N(C)C)ncnc21
Reply: > 100 µM

Ask: Endpoint output: TGI of O=C(O)CCSC(CC1(c2ccc(Cl)cc2)NC(=O)CCS1)c1ccccc1 (stereo not given) . Value?
Reply: 33.4 µM

Ask: Look up TGI: CC(=O)N(C)CCc1c[nH]c2ccccc12
Reply: > 100 µM

Ask: Field request: TGI | item: CCOC(=O)[C@H](C)OC(=O)[C@@](C)(NC(=O)c1ccccc1C(=O)OC)[C@@H]1NC=C(C(=O)OC)CS1
Reply: > 100 µM

Ask: Return reported TGI; argument: O=C1NC(N/N=C\C(O)C(O)C(O)C(O)CO)=N/C1=C/c1ccc(Cl)cc1 (stereo not given)
Reply: > 100 µM

Ask: Reported TGI, molecule Cc1ccc(Cl)c2c(=O)c3ccc(N)cc3sc12 : ____
Reply: 33.6 µM
